- test.system: CaBzz1-D2
- experimental.protocol: SPOT peptide array binding signal intensity (averaged, normalized) (arbitrary units (background-subtracted, floor 0; scale differs between SH3 domains)); higher = stronger binding of the SH3 domain to the peptide
What SPOT peptide array binding signal intensity was measured for each of the following?

Reference set, count: 5
{"binder": "QFDLKMPSKPIHNLK", "observed.value": 8}
{"binder": "DLPLPDLPPEPPTEL", "observed.value": "≤ 0"}
{"binder": "ERPKRRAPPPVPKKP", "observed.value": 3000}
{"binder": "NQARKPFLLPATELS", "observed.value": "≤ 0"}
{"binder": "DKKTKPTPPPKPSHL", "observed.value": 262}

Next item in the queue.
// recorded SPOT peptide array binding signal intensity for GRSRLFPHSPLGRSS : 39.2
